Tested on: HCT-116 colon
Assay: NCI tumour cell line growth inhibition, 48 h
property_name: TGI

Input: Specify TGI for COc1nc(NC2OCC(OC(C)=O)C(OC(C)=O)C2OC(C)=O)c(N=CC=Nc2c(NC3OCC(OC(C)=O)C(OC(C)=O)C3OC(C)=O)nc(OC)n(C)c2=O)c(=O)n1C (stereo not drawn) , system HCT-116 colon.
Output: > 100 µM

Input: Please respond with reported TGI (system HCT-116 colon) for "N#Cc1cnc2cc(OC[C@H](O)CO)c(NC(=O)CC3CSSC3)cc2c1Nc1ccc(OCc2cccc(F)c2)c(Cl)c1" .
Output: 0.208 µM

Input: Give TGI for "COc1ccccc1NC(=O)C1=C(C)NC(C)=C(C(=O)Nc2ccccc2OC)C1c1ccccc1F" tested on HCT-116 colon.
Output: > 100 µM

Input: Provide TGI, tested on HCT-116 colon, for "CNC(=O)c1cncc(/C=C/c2ccccc2C)c1" .
Output: > 25 µM

Input: Name the recorded TGI of "CCCC[C@H](NC(=O)[C@H]1CCCN1C)C(=O)N(C)[C@H](C[C@@H](OC(C)=O)c1nc(C(=O)N[C@@H](Cc2ccccc2)C[C@H](C)C(=O)OCC)cs1)C(C)C" , assay system HCT-116 colon.
Output: > 33.3 µM

Input: Report measured TGI on HCT-116 colon; entry: "O=C(CN1CCCCC1)CC(O)(C(F)(F)F)C(F)(F)F"
Output: > 100 µM

Input: Give HCT-116 colon TGI for the following molecule: "CCN(CC)S(=O)(=O)c1ccc(OC)c(Nc2ncc(-c3ccccc3)o2)c1"
Output: > 25 µM

Input: Answer with TGI of "CC1=NCCc2c1[nH]c1cc(O)ccc21" measured for HCT-116 colon.
Output: > 100 µM

---

Exercise: for every item that follows, state its recorded TGI.
Tested on: A549 NSCLC
Experiment: NCI tumour cell line growth inhibition, 48 h

Input: Would you please give the reported TGI of "COc1cc(/C=C/C(=O)O)ccc1C(=O)O/C=C/c1ccccc1" with A549 NSCLC?
Output: > 100 µM

Input: Report TGI under test system A549 NSCLC for "Cc1cc2c(C)cc(=O)[nH]c2cc1N" .
Output: > 100 µM

Input: Give the observed TGI of "COc1ccc(/C(=N/O)c2ccccc2-c2nc3ccccc3c(=O)n2-c2ccc(S(=O)(=O)Nc3ncccn3)cc2)cc1C" for A549 NSCLC.
Output: > 31.6 µM

Input: # lookup: A549 NSCLC TGI, key = "C1CCSCCCCSCCCCSCCCCSC1"
Output: > 100 µM

Input: Enter TGI (test system A549 NSCLC) for CCC(C(=O)O)c1ccc(OCc2ccccc2)cc1 (configuration not stated)
Output: > 100 µM

Input: Tell me TGI of "Cc1cc(-c2nc3c(O)cccc3s2)ccc1N" when tested on A549 NSCLC.
Output: 47.9 µM

Input: # return TGI of CC(C)(C)OC(=O)C#CC[C@H]1CCCC1/C=C/C(O)=C1/C(=O)NC(CCCNC(=O)OC(C)(C)C)C1=O (some centres not stated) (system: A549 NSCLC)
Output: > 100 µM

Input: Specify TGI for "C=C1C(=O)O[C@H]2[C@H]1CC/C(COC(=O)NCc1ccccc1OC)=C\CC[C@@]1(C)O[C@@H]21" , system A549 NSCLC.
Output: 11.8 µM

Input: Fetch value of TGI on A549 NSCLC for "CNS(=O)(=O)NN(C)S(=O)(=O)c1ccc(F)cc1" .
Output: > 100 µM

Input: Report value only: TGI, A549 NSCLC, "O=c1cc(/C=C/c2ccc(O)c(O)c2)oc(/C=C/c2ccc(O)c(O)c2)c1"
Output: 37.1 µM

Input: Report TGI on A549 NSCLC for this entry: Cc1ccccc1OC(C)C(=O)NN1C(=O)CC(=O)N(c2ccc(Cl)cc2)C1=S (configuration not stated)
Output: > 100 µM

Input: Report value: TGI, system: A549 NSCLC, compound: "c1ccc2c(c1)[nH]c1nc3cc(-c4ccc5nc6c(nc5c4)[nH]c4ccccc46)ccc3nc12"
Output: > 100 µM

Input: Find TGI for "CC(C)(C)C1=Cc2cc3cc(C(C)(C)C)[nH]c(=O)c3cc2S(=O)(=O)N1" on A549 NSCLC and write it down.
Output: 75.3 µM

Input: // fetch TGI for Cc1cc(C)c2c(=O)n(CN3CC4Nc5ccccc5C4C3)sc2n1 (configuration not stated) ; system: A549 NSCLC
Output: > 100 µM

Input: State recorded TGI with A549 NSCLC, entry "COc1ccc(C(=O)/C=C/c2ccc(/C=C/c3cc(OC)c(OC)c(OC)c3)cc2)cc1" , no comment.
Output: 80.9 µM

Input: GET TGI where system = A549 NSCLC and item = "c1cc(-c2cn3ccsc3n2)ccn1"
Output: > 100 µM

Input: Give A549 NSCLC TGI for the following compound: "N#C/C(=C1\OC(=O)C(c2ccc(Br)cc2)=C1O)c1ccc(Br)cc1"
Output: 44.2 µM

Input: Write down measured TGI (A549 NSCLC) for this compound. "C/C(=N/NC(N)=S)c1ccc2ccccc2c1"
Output: > 100 µM

Input: Recall the reported TGI of "O=C1CCSSCCC(=O)NCCN1" when tested on A549 NSCLC.
Output: > 100 µM

Input: Specify TGI for "CN1CCN(CCc2cccc(C(=O)c3cnn(-c4ccc(F)cc4)c3N)c2)CC1" , system A549 NSCLC.
Output: > 25 µM

Input: System A549 NSCLC. Read-out TGI. Item COC(=O)CCC1CCc2c(OC)ccc(O)c2C1=O (configuration not stated) . Report value.
Output: > 100 µM

Input: System A549 NSCLC. Read-out TGI. Item "CCCCn1c2c(n(CCCC)c1=S)-c1c(n(CCCC)c(=S)n1CCCC)S[Se][Se]S2" . Report value.
Output: > 88.7 µM

The reported measurements were obtained from PubChem BioAssay (NCI).
